- targetEntity: NLRP3 inflammasome (Homo sapiens)
- Construct: host or cells: THP1-Null cells (PMA-differentiated, LPS-primed, nigericin-stimulated)
- experimentSummary: Evaluation of NLRP3 inflammasome inhibitory activity (inhibition of IL-1β production in LPS/Nigericin-stimulated THP1-Null cells, AlphaLISA)
- Format: cell-based
- recordedConditions: IL-1β production in THP1-Null cells; PMA, 1 µg/mL Lipopolysaccharides 3 hours, Nigericin 7.5 µmol/L 1.5 hours; read-out: IC50
Binarize IC50 at 100 nM; below is True, at or above is False.

// below: answered compounds
compound="Cc1cc(Br)cc(C)c1-n1cc2c(=O)[nH]c(C3(F)COC3)nc2n1 [Example 108]" grouplabel=True
compound="Cc1cc(C2CC2)cc(C)c1-n1cc2c(=O)[nH]c(C3COC3)nc2n1 [Example 39]" grouplabel=True
compound="Cc1cc(OC(F)F)cc(C)c1-n1cc2c(=O)[nH]c([C@H](C)O)nc2n1 (single isomer, unassigned) [Example 166]" grouplabel=False
compound="COc1cc(C)c(-n2cc3c(=O)[nH]c(C4CC4)nc3n2)c(C)c1 [Example 53]" grouplabel=False
compound="Cc1cc(Br)cc(C)c1-n1cc2c(=O)[nH]c(C(C)(C)F)nc2n1 [Example 70]" grouplabel=False

Incoming: Decide: IC50 of Cc1cc(C2CC2)cc(C)c1-n1nc2nc(C3CC3)[nH]c(=O)c2c1C#N [Example 87] strictly below 100 nM?
Outgoing: True

Incoming: Decide: IC50 of COCc1nc2nn(-c3c(C)cc(C4CC4)cc3C)cc2c(=O)[nH]1 [Example 43] strictly below 100 nM?
Outgoing: True

Incoming: Decide: IC50 of CCC(O)c1nc2nn(-c3c(C)cc(C4CC4)cc3C)cc2c(=O)[nH]1 (racemic) [Example 134] strictly below 100 nM?
Outgoing: True

###

- targetEntity: NLRP3 inflammasome (Homo sapiens, UniProt Q96P20)
- Construct: host or cells: THP1-Null cells (PMA-differentiated, LPS-primed, nigericin-stimulated)
- Sequence (Q96P20 whole entry): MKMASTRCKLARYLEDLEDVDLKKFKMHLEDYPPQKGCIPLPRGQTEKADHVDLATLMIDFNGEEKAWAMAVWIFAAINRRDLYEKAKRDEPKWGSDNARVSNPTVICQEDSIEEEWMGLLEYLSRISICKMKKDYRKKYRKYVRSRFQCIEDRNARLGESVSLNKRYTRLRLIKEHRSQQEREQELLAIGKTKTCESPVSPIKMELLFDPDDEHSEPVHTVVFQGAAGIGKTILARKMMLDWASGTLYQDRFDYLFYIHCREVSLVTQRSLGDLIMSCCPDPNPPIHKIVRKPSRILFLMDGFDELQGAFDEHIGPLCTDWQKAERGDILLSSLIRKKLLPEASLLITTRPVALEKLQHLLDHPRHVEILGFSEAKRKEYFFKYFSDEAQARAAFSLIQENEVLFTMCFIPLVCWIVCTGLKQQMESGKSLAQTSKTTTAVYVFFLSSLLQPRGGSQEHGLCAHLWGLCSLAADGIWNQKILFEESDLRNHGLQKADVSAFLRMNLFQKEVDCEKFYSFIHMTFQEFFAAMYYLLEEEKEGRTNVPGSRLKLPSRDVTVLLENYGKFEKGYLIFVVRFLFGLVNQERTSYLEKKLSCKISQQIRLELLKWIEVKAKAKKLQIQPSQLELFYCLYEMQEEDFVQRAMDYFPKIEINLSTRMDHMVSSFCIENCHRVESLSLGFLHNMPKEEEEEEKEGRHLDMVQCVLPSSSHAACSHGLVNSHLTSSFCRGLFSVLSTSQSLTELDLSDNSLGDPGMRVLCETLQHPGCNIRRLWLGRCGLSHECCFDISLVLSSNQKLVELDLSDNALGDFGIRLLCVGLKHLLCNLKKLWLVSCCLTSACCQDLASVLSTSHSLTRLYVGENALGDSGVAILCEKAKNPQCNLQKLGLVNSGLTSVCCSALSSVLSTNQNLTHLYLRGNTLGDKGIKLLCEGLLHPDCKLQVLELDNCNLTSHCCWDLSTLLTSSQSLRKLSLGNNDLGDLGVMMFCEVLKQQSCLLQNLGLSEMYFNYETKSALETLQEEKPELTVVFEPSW
- experimentSummary: Evaluation of NLRP3 inflammasome inhibitory activity (inhibition of IL-1β production in LPS/Nigericin-stimulated THP1-Null cells, AlphaLISA)
- Format: cell-based
- recordedConditions: IC50, IL-1β production in THP1-Null cells; PMA, 1 µg/mL Lipopolysaccharides 3 hours, Nigericin 7.5 µmol/L 1.5 hours
Binarize IC50 at 50 nM; below is fulfilled, at or above is not fulfilled.

// below: answered compounds
compound="Cc1cc(C2CC2)cc(C)c1-n1cc2c(=O)[nH]c([C@@H]3C[C@H]3C#N)nc2n1 (racemic)" targetentity="NLRP3 inflammasome (Homo sapiens, UniProt Q96P20)" grouplabel=fulfilled
compound=Cc1nc2nn(-c3c(C)cc(Br)cc3C)cc2c(=O)[nH]1 targetentity="NLRP3 inflammasome (Homo sapiens, UniProt Q96P20)" grouplabel="not fulfilled"
compound="Cc1cc(Br)cc(C)c1-n1cc2c(=O)[nH]c(C3CC4CCN3CC4)nc2n1 (racemic)" targetentity="NLRP3 inflammasome (Homo sapiens, UniProt Q96P20)" grouplabel="not fulfilled"

Incoming: Decide: IC50 of Cc1cc(C2CC2)cc(C)c1-n1cc2c(=O)[nH]c(C3CC4CCN3CC4)nc2n1 (racemic) strictly below 50 nM?
Outgoing: fulfilled

Incoming: Decide: IC50 of `Cc1cc(Br)cc(C)c1-n1cc2c(=O)[nH]c(C34CC(C3)C4)nc2n1` strictly below 50 nM?
Outgoing: not fulfilled

Incoming: Decide: IC50 of `Cc1cc(C(C)(C)F)cc(C)c1-n1cc2c(=O)[nH]c(C3CC3)nc2n1` strictly below 50 nM?
Outgoing: fulfilled

###

Items are presented alongside their recorded IC50.
- targetEntity: NLRP3 inflammasome (Homo sapiens)
- Construct: host or cells: THP1-Null cells (PMA-differentiated, LPS-primed, nigericin-stimulated)
- experimentSummary: Evaluation of NLRP3 inflammasome inhibitory activity (inhibition of IL-1β production in LPS/Nigericin-stimulated THP1-Null cells, AlphaLISA)
- Assay type: cell-based
- recordedConditions: IL-1β production in THP1-Null cells; PMA, 1 µg/mL Lipopolysaccharides 3 hours, Nigericin 7.5 µmol/L 1.5 hours
Return type: number; implicit unit nM.

Incoming: IC50 of Cc1cc(C(C)(F)F)cc(C)c1-n1cc2c(=O)[nH]c(C3CCOCCO3)nc2n1 (single isomer, unassigned) [Example 187] on NLRP3 inflammasome (Homo sapiens)?
Outgoing: 67

Incoming: IC50 of Cc1cc(C2CC2)cc(C)c1-n1cc2c(=O)[nH]c(C3(F)CCOC3)nc2n1 (single isomer, unassigned) [Example 79] on NLRP3 inflammasome (Homo sapiens)?
Outgoing: 75

Incoming: IC50 of Cc1cc(OC(F)F)cc(C)c1-n1cc2c(=O)[nH]c(C3CCOCC3F)nc2n1 (single isomer, unassigned) [Example 177] on NLRP3 inflammasome (Homo sapiens)?
Outgoing: 24

###

Items are presented alongside their recorded IC50.
- targetEntity: NLRP3 inflammasome (Homo sapiens)
- Construct: host or cells: THP1-Null cells (PMA-differentiated, LPS-primed, nigericin-stimulated)
- experimentSummary: Evaluation of NLRP3 inflammasome inhibitory activity (inhibition of IL-1β production in LPS/Nigericin-stimulated THP1-Null cells, AlphaLISA)
- Type: cell-based
- recordedConditions: IL-1β production in THP1-Null cells; PMA, 1 µg/mL Lipopolysaccharides 3 hours, Nigericin 7.5 µmol/L 1.5 hours; read-out: IC50
Return type: number; implicit unit µM.

molecule=Cc1cc(OC(F)F)cc(C)c1-n1cc2c(=O)[nH]c(C3CC3)nc2n1 targetentity="NLRP3 inflammasome (Homo sapiens)" readoutkind=IC50 recordedmeasurement=0.033
molecule=Cc1cc(C(F)(F)F)cc(C)c1-n1cc2c(=O)[nH]c(C3CC3)nc2n1 targetentity="NLRP3 inflammasome (Homo sapiens)" readoutkind=IC50 recordedmeasurement=0.031
molecule="COC(Cc1nc2nn(-c3c(C)cc(Br)cc3C)cc2c(=O)[nH]1)C(F)(F)F (racemic)" targetentity="NLRP3 inflammasome (Homo sapiens)" readoutkind=IC50 recordedmeasurement=0.073

Incoming: IC50 of `COCc1cc(C2CC2)cc(C)c1-n1cc2c(=O)[nH]c(C3CC3)nc2n1` on NLRP3 inflammasome (Homo sapiens)?
Outgoing: 0.036

###

Items are presented alongside their recorded IC50.
- targetEntity: NLRP3 inflammasome (Homo sapiens)
- Construct: host or cells: THP1-Null cells (PMA-differentiated, LPS-primed, nigericin-stimulated)
- experimentSummary: Evaluation of NLRP3 inflammasome inhibitory activity (inhibition of IL-1β production in LPS/Nigericin-stimulated THP1-Null cells, AlphaLISA)
- Type: cell-based
- recordedConditions: IL-1β production in THP1-Null cells; PMA, 1 µg/mL Lipopolysaccharides 3 hours, Nigericin 7.5 µmol/L 1.5 hours
Return type: number; implicit unit nM.

Incoming: Item under review: Cc1cc(C(C)(F)F)cc(C)c1-n1cc2c(=O)[nH]c(C3(F)CCOC3)nc2n1 (single isomer, unassigned) [Example 130] . Reported IC50?
Outgoing: 240

Incoming: Item under review: Cc1cc(C2CC2)cc(C)c1-n1cc2c(=O)[nH]c(C(C)O)nc2n1 (single isomer, unassigned) [Example 157] . Reported IC50?
Outgoing: 340

Incoming: Item under review: Cc1cc(OC(F)F)cc(C)c1-n1cc2c(=O)[nH]c(C3COCC3F)nc2n1 (single isomer, unassigned) [Example 182] . Reported IC50?
Outgoing: 8

Incoming: Item under review: Cc1cc(Br)cc(C)c1-n1cc2c(=O)[nH]c(C3CC3F)nc2n1 (stereo not shown) . Reported IC50?
Outgoing: 7

###

- targetEntity: NLRP3 inflammasome (Homo sapiens)
- Construct: host or cells: THP1-Null cells (PMA-differentiated, LPS-primed, nigericin-stimulated)
- experimentSummary: Evaluation of NLRP3 inflammasome inhibitory activity (inhibition of IL-1β production in LPS/Nigericin-stimulated THP1-Null cells, AlphaLISA)
- Assay type: cell-based
- recordedConditions: IL-1β production in THP1-Null cells; PMA, 1 µg/mL Lipopolysaccharides 3 hours, Nigericin 7.5 µmol/L 1.5 hours
Items are presented alongside their recorded log10 of IC50.
Parameter value (number): base-10 log of IC50 in nM.

molecule="Cc1cc(C(C)(F)F)cc(C)c1-n1cc2c(=O)[nH]c(C3(F)CCOC3)nc2n1 (single isomer, unassigned) [Example 129]" recordedmeasurement=1.70
molecule="Cc1cc(OC(F)F)cc(C)c1-n1cc2c(=O)[nH]c(C3COCC3F)nc2n1 (single isomer, unassigned) [Example 183]" recordedmeasurement=1.54
molecule="Cc1cc(OC(F)F)cc(C)c1-n1cc2c(=O)[nH]c(C3CCOCC3F)nc2n1 (single isomer, unassigned) [Example 176]" recordedmeasurement=1.88

Incoming: Item under review: Cc1cc(C2CC2)cc(C)c1-n1cc2c(=O)[nH]c(C3CCOC3)nc2n1 (single isomer, unassigned) [Example 51] . Reported log10 of IC50?
Outgoing: 1.38

Incoming: Item under review: Cc1cc(C2CC2)cc(C)c1-n1cc2c(=O)[nH]c(C(O)C(F)F)nc2n1 (racemic) [Example 158] . Reported log10 of IC50?
Outgoing: 1.41

Incoming: Item under review: Cc1cc(C2CC2)cc(C)c1-n1cc2c(=O)[nH]c(C(C)O)nc2n1 (single isomer, unassigned) [Example 156] . Reported log10 of IC50?
Outgoing: 1.11

Incoming: Item under review: Cc1cc(C2CC2)cc(C)c1-n1cc2c(=O)[nH]c(C3(F)CCOC3)nc2n1 (single isomer, unassigned) [Example 78] . Reported log10 of IC50?
Outgoing: 1.52

Incoming: Item under review: Cc1cc(C2CC2)cc(C)c1-n1cc2c(=O)[nH]c(C3CCOC3)nc2n1 (single isomer, unassigned) [Example 50] . Reported log10 of IC50?
Outgoing: 0.70

Origin of the recorded values: patent EP4671247A1
